- MEASURED ON: acid ceramidase (hACR) (Homo sapiens)
- Construct: expressed in transfected cells
- Sequence (Q13510 22-395): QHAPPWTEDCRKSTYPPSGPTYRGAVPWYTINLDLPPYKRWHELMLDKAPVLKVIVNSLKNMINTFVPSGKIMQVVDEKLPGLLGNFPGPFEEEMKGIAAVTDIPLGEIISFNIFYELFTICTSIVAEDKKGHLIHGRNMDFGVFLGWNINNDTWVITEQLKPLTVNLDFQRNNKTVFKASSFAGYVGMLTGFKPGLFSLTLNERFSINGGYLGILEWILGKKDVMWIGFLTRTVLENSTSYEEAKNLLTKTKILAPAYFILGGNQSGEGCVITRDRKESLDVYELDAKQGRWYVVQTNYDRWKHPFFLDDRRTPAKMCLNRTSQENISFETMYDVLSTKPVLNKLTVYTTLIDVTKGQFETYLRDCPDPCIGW
- TEST: Acid ceramidase inhibition, biochemical fluorescent assay with cell lysates overexpressing acid ceramidase (substrate Rbm14-12)
- TEST CONTEXT: IC50 hACR, cell lysate, 1 hr preincubation at RT, pH 4.5, Rbm14-12 6.3 μM
pIC50: −log10 of the molar value.

{"COMPOUND": "CCC(C)(C)c1cn(C(=O)NCCC(C)C)c(OC)n1 [Example 100]", "pIC50": "6.00 to 6.70"}

----------
- MEASURED ON: acid ceramidase (hACR) (Homo sapiens)
- Construct: expressed in transfected cells
- TEST: Acid ceramidase inhibition, biochemical fluorescent assay with cell lysates overexpressing acid ceramidase (substrate Rbm14-12)
- TEST CONTEXT: cell lysate, 1 hr preincubation at RT, pH 4.5, Rbm14-12 6.3 μM; read-out: IC50 hACR
pIC50: −log10 of the molar value.

{"MOLECULE": "Cc1cn(C(=O)NCC#CCc2ccccc2)c(OCCN2CCN(C)CC2)n1 [Example 201]", "pIC50": "> 6.70"}
{"MOLECULE": "O=C(NCCCc1ccccc1)n1cnc(-c2ccccc2)c1 [Example 9]", "pIC50": "> 6.70"}
{"MOLECULE": "CC(C)CCCCNC(=O)n1cnc(-c2cccnc2)c1 [Example 39]", "pIC50": "> 6.70"}
{"MOLECULE": "Cc1cn(C(=O)NCCc2ccccc2)c(OC(C)C)n1 [Example 149]", "pIC50": "> 6.70"}
{"MOLECULE": "COc1nc(Cl)cn1C(=O)NCC#CC(C)C [Example 186]", "pIC50": "6.00 to 6.70"}
{"MOLECULE": "CC(C)CCNC(=O)n1cnc(-c2ccncc2)c1 [Example 41]", "pIC50": "< 6.00"}
{"MOLECULE": "O=C(NCCC1CC1)n1cnc(-c2cccnc2)c1 [Example 22]", "pIC50": "6.00 to 6.70"}
{"MOLECULE": "O=C(NCCCC1CC1)n1cnc(-c2cccnc2)c1 [Example 32]", "pIC50": "6.00 to 6.70"}
{"MOLECULE": "Cc1cn(C(=O)NCCCC(F)(F)F)c(OCCN2CCN(C)CC2)n1 [Example 198]", "pIC50": "6.00 to 6.70"}
{"MOLECULE": "COc1nccn1C(=O)NCCCCc1ccccc1 [Example 136]", "pIC50": "> 6.70"}
